Test system: M17-SYNwt cells
Method: α-synuclein cytotoxicity assay (LDH leakage from paraquat-treated α-synuclein over-expressing neuroblastoma cells)
Format: cell-based, human
Condition label: Homo sapiens, Neuroblastoma cell; paraquat 32 mM, 40 hours, LDH release; 10 point curves in duplicate
Returns the class for an entry based on its EC50. Class ranges: band 1 (below 0.1 µg/mL), band 2 (0.1 µg/mL to below 0.8 µg/mL), band 3 (0.8 µg/mL or more)

Molecule | Class name
Cc1ccc(Cc2nsc(N3CCN(C(=O)c4cccc(F)c4)CC3)n2)cc1 | band 3
COc1ccc(S(=O)(=O)N2CCN(c3nc(Cc4cccc(OC)c4)ns3)CC2C)cc1 (stereo not drawn) | band 1
Fc1ccc(Cc2nsc(N3CCN(C/C=C/c4ccccc4)CC3)n2)cc1 | band 3
COc1ccc(S(=O)(=O)N2CCN(c3nc(Cc4ccc(C)cc4)ns3)CC2C)cc1 (stereo not drawn) | band 1
CCCCCCc1ccc(C(=O)N2CCN(c3nc(Cc4ccc(F)cc4)ns3)CC2)cc1 | band 2

Enquiry: Band for CCCCc1ccc(C(=O)NCCN2CCN(c3nc(Cc4ccc(F)cc4)ns3)CC2)cc1 ?
Return: band 2

Enquiry: Into which category would you place Cc1ccc(Cc2nsc(N3CCN(S(=O)(=O)c4c(C)cc(C)cc4C)CC3)n2)cc1 ?
Return: band 1

Enquiry: Given CC1CN(c2nc(Cc3ccc(F)cc3)ns2)CCN1C(=O)c1ccc2ccccc2c1 (stereo not drawn) , name the class its EC50 places it in.
Return: band 2

----------
Tested on: M17-SYNwt cells
Method: α-synuclein cytotoxicity assay (LDH leakage from paraquat-treated α-synuclein over-expressing neuroblastoma cells)
Type: cell-based, human
Condition label: Homo sapiens, Neuroblastoma cell; paraquat 32 mM, 40 hours, LDH release; 10 point curves in duplicate
Parameter: EC50. Scope: all listed entries.
Report the value in µg/mL with no unit label.

# annotated cases, reported EC50 shown
Compound | Endpoint result
CC1CN(c2nc(Cc3ccc(F)cc3)ns2)CCN1C(=O)/C=C/c1ccccc1 (stereo not shown) [Compound 87] | 2.49
COc1cccc(Cc2nsc(N3CCN(C(=O)c4ccccc4F)C(C)C3)n2)c1 (stereo not shown) [Compound 115] | 0.0361
COc1ccc(S(=O)(=O)N2CCN(c3nc(Cc4ccccc4F)ns3)CC2)cc1 [Compound 194] | 0.0012
Cc1ccc(Cc2nsc(N3CCN(C(=O)c4ccc(Br)cc4)CC3)n2)cc1 [Compound 164] | 3.86
CCC(=O)Oc1ccc(S(=O)(=O)N2CCN(c3nc(Cc4ccc(F)cc4)ns3)CC2)cc1 [Compound 200] | 0.051

Enquiry: Given the entry Cc1ccc(Cc2nsc(N3CCN(S(=O)(=O)c4ccc(Cl)cc4)C(C)C3)n2)cc1 (stereo not shown) [Compound 34] , report its measured EC50.
Return: 0.0657

Enquiry: Give the measured EC50 of O=C(Nc1ccccc1)N1CCN(c2nc(Cc3ccc(F)cc3)ns2)CC1 [Compound 13] .
Return: 1.23

Enquiry: I would be grateful if you could share the reported EC50 for Cc1ccc(C(=O)N2CCN(c3nc(Cc4ccc(F)cc4)ns3)CC2)cc1 [Compound 141] .
Return: 0.49

----------
Test system: M17-SYNwt cells
Method: α-synuclein cytotoxicity assay (LDH leakage from paraquat-treated α-synuclein over-expressing neuroblastoma cells)
Format: cell-based, human
Condition label: Homo sapiens, Neuroblastoma cell; paraquat 32 mM, 40 hours, LDH release; 10 point curves in duplicate
Endpoint: EC50 (µg/mL)
Number in µg/mL, nothing else.

See these solved cases before continuing.
Compound | Unit | EC50
COc1ccc(S(=O)(=O)N2CCN(c3nc(Cc4cccc(C)c4)ns3)CC2)cc1 | µg/mL | 0.0021
CC1CN(c2nc(Cc3ccc(F)cc3)ns2)CCN1C(=O)Nc1cccc2ccccc12 (centres unmarked) | µg/mL | 1.69
O=S(=O)(c1ccc(F)cc1)N1CCN(c2nc(Cc3ccc(Cl)cc3)ns2)CC1 | µg/mL | 0.00282
COc1ccccc1C(=O)N1CCN(c2nc(Cc3ccc(F)cc3)ns2)CC1C (centres unmarked) | µg/mL | 0.29
CCc1ccc(C(=O)N2CCN(c3nc(Cc4ccc(F)cc4)ns3)CC2C)cc1 (centres unmarked) | µg/mL | 0.0522
CCCCc1ccc(C(=O)N2CCN(c3nc(Cc4ccc(C)cc4)ns3)CC2C)cc1 (centres unmarked) | µg/mL | 0.0841

Enquiry: What EC50 value was documented for this compound, O=S(=O)(c1ccc2ccccc2c1)N1CCN(c2nc(Cc3ccc(Cl)cc3)ns2)CC1 ?
Return: 0.1

Enquiry: For the compound shown here, Cc1ccc(Cc2nsc(N3CCN(C(=O)c4ccccc4)CC3)n2)cc1 , give the reported EC50.
Return: 2.1

----------
Tested on: M17-SYNwt cells
Method: α-synuclein cytotoxicity assay (LDH leakage from paraquat-treated α-synuclein over-expressing neuroblastoma cells)
Format: cell-based, human
Condition label: Homo sapiens, Neuroblastoma cell; paraquat 32 mM, 40 hours, LDH release; 10 point curves in duplicate
Endpoint: log10 of EC50 (log10 of the value in µg/mL)
Please be aware that the numbers have been log10-transformed from EC50 in µg/mL.

Molecule | log10 of EC50
Cc1ccc(Cc2nsc(N3CCN(S(=O)(=O)c4c(C)cc(C)cc4C)C(C)C3)n2)cc1 (centres unmarked) | 0.08
Cc1ccc(Cc2nsc(N3CCN(S(=O)(=O)c4ccc(F)cc4)CC3)n2)cc1 | -1.98
O=C(NCCN1CCN(c2nc(Cc3ccc(Cl)cc3)ns2)CC1)c1cccc(F)c1 | 0.25
COc1ccc(S(=O)(=O)N2CCN(c3nc(Cc4cccc(F)c4)ns3)CC2)cc1 | -2.32
O=C(Nc1cccc(F)c1)N1CCN(c2nc(Cc3ccc(F)cc3)ns2)CC1 | -0.28

Enquiry: Please give the measured log10 of EC50 for this molecule: O=C(NCCN1CCN(c2nc(Cc3ccc(F)cc3)ns2)CC1)c1ccc(Cl)cc1
Return: 0.11

Enquiry: // query log10 of EC50 value for entry Fc1ccc(Cc2nsc(N3CCN(c4ccccc4F)CC3)n2)cc1
Return: 0.45

Enquiry: Record request: log10 of EC50 value, item CC1CN(c2nc(Cc3ccc(F)cc3)ns2)CCN1C(=O)Nc1ccc(F)cc1F (centres unmarked)
Return: -0.03

Enquiry: What value of log10 of EC50 has been recorded for this entry: O=S(=O)(c1cc(Cl)ccc1Cl)N1CCN(c2nc(Cc3ccc(Cl)cc3)ns2)CC1
Return: -0.80

Enquiry: Which log10 of EC50 reading was recorded for the molecule CCCCc1ccc(C(=O)N2CCN(c3nc(Cc4ccc(F)cc4)ns3)CC2C)cc1 (centres unmarked) ?
Return: -1.01

Enquiry: Which log10 of EC50 reading was recorded for the molecule CCc1ccc(C(=O)NCCN2CCN(c3nc(Cc4ccc(F)cc4)ns3)CC2)cc1 ?
Return: 0.37

----------
System: M17-SYNwt cells
Method: α-synuclein cytotoxicity assay (LDH leakage from paraquat-treated α-synuclein over-expressing neuroblastoma cells)
Assay type: cell-based, human
Condition label: Homo sapiens, Neuroblastoma cell; paraquat 32 mM, 40 hours, LDH release; 10 point curves in duplicate
# reported EC50; entries follow
Give a bare numeral; the unit µg/mL is implied.

Compound | EC50, µg/mL
CCCCCCc1ccc(C(=O)NCCN2CCN(c3nc(Cc4ccc(F)cc4)ns3)CC2)cc1 | 0.8

Enquiry: Can you look up the measured EC50 of CCOc1ccccc1N1CCN(c2nc(Cc3ccc(F)cc3)ns2)CC1 for me?
Return: 2.05

Enquiry: Please give the measured EC50 for this compound: COc1ccc(C(=O)N2CCN(c3nc(Cc4ccc(F)cc4)ns3)CC2C)cc1 (stereo not shown)
Return: 0.0911

Enquiry: What EC50 value was documented for this compound, Cc1ccc(C(=O)N2CCN(c3nc(Cc4ccc(F)cc4)ns3)CC2C)cc1 (stereo not shown) ?
Return: 0.4

Enquiry: What value of EC50 has been reported for the following compound? CCCCS(=O)(=O)N1CCN(c2nc(Cc3ccc(C)cc3)ns2)CC1
Return: 2.64

Enquiry: Query (compound): CC(=O)Nc1ccc(S(=O)(=O)N2CCN(c3nc(Cc4ccc(F)cc4)ns3)CC2C)cc1 (stereo not shown) ; field requested: EC50
Return: 0.0781

Enquiry: Endpoint output: EC50 of Cc1ccc(C(=O)N2CCCN(c3nc(Cc4ccc(F)cc4)ns3)CC2)cc1 . Value?
Return: 2.77

Enquiry: Fill in: EC50 of COc1ccc(S(=O)(=O)N2CCN(c3nc(Cc4ccc(C)cc4)ns3)CC2)cc1 is ___
Return: 0.000255

Enquiry: Fill in: EC50 of CCC(C(=O)N1CCN(c2nc(Cc3ccc(F)cc3)ns2)CC1C)c1ccccc1 (stereo not shown) is ___
Return: 1.49

Enquiry: Which EC50 is listed for O=C(c1ccc(Cl)cc1)N1CCCN(c2nc(Cc3ccc(F)cc3)ns2)CC1 ?
Return: 0.17

Enquiry: I would be grateful if you could share the reported EC50 for COc1cccc(Cc2nsc(N3CCN(C(=O)c4ccc(C)cc4)C(C)C3)n2)c1 (stereo not shown) .
Return: 0.14

Enquiry: Query: EC50; subject: COc1cccc(Cc2nsc(N3CCN(C(=O)c4ccc5c(c4)OCO5)C(C)C3)n2)c1 (stereo not shown)
Return: 0.095

Enquiry: Could you share which EC50 value was measured for Cc1ccc(Cc2nsc(N3CCN(S(=O)(=O)c4cc(Cl)ccc4Cl)C(C)C3)n2)cc1 (stereo not shown) ?
Return: 0.1
